Molecular target: S. pombe Dcp2 catalytic domain (residues 95-243) (Schizosaccharomyces pombe)
Sequence (O13828 95-243): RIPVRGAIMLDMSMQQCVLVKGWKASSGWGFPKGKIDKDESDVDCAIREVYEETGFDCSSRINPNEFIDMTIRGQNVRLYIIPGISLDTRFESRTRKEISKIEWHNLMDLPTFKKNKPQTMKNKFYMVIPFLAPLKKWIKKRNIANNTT
PROPERTY: Kd (mM)
I only need the number, in mM, no unit after it.

For S. pombe Dcp2 catalytic domain (residues 95-243) (Schizosaccharomyces pombe), give Kd of the listed compound: C[n+]1cn([C@@H]2O[C@H](COP(=O)(O)OP(=O)(O)O)[C@@H](O)[C@H]2O)c2nc(N)[nH]c(=O)c21
12

====

biological target: S. pombe Dcp2 regulatory domain (residues 1-94) (Schizosaccharomyces pombe, UniProt O13828); experiment: […]-HSQC NMR titration; format: binding
PROPERTY: Kd

In [3]: df
Out[3]:
                                   compound  recorded_result
0  Nc1nc2c(ncn2[C@@H]2O[C@H](COP(=O)(O)OP(=O)(O)O)[C@@H](O)[C@H]2O)c(=O)[nH]1 [GDP]           ~40 mM

Please look at this compound and report its Kd: C[n+]1cn([C@@H]2O[C@H](COP(=O)(O)OP(=O)(O)O)[C@@H](O)[C@H]2O)c2nc(N)[nH]c(=O)c21 [m^7GDP]
~12 mM

These entries and their values trace back to paper PMC2933276.
